Numbers sourced from the kinase profiling compilation of Christmann-Franck et al. (2016).

Listed here: items and their measured kinase still bound, per cent of control.
target.system: CDK17 (human) (UniProt Q00537)
Sequence (Q00537 whole entry, looked up): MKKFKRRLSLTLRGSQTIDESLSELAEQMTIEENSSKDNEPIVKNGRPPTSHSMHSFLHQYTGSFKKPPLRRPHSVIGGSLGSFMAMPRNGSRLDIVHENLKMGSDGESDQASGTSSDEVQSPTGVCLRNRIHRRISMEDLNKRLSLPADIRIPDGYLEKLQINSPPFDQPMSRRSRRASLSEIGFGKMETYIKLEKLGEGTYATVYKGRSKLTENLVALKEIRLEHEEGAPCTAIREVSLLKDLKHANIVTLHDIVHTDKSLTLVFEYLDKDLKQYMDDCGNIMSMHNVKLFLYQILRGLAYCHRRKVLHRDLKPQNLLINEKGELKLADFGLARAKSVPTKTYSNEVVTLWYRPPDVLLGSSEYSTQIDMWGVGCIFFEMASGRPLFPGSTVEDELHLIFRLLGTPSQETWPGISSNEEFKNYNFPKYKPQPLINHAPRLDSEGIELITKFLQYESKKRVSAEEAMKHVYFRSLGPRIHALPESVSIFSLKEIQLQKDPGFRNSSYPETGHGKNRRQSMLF
experiment.summary: KINOMEscan competition binding
experimental.setup: compound 10.0 µM
readout.kind: kinase still bound, per cent of control (%)

entry.smiles	value
Cn1c(=O)n(-c2ccc(C(C)(C)C#N)cc2)c2c3cc(-c4cnc5ccccc5c4)ccc3ncc21	100
COc1cc(N2CCN(C)CC2)ccc1Nc1nc(N)c(C(=O)c2c(Cl)cccc2Cl)s1	42
O=C1Nc2ccc(I)cc2/C1=C/c1cc(Br)c(O)c(Br)c1	87
COc1cc(C(=O)NC2CCN(C)CC2)ccc1Nc1ncc2c(n1)N(C1CCCC1)CCC(=O)N2C(C)C	100
CC[C@@H]1C(=O)N(C)c2cnc(Nc3ccc(C(=O)NC4CCN(C)CC4)cc3OC)nc2N1C1CCCC1	100
